These data points were gathered from patent US20100144645A1.

For each record, write down the corresponding Oral:IN Index Cmax.
- PROCEDURE_SUMMARY: Oral bioavailability of hydrocodone conjugates (plasma hydrocodone plus hydromorphone)
- PROTOCOL_CONDITIONS: ratio of oral to IN Cmax (% HC)
// keep it numeric: no unit symbol after the value

// lookup Oral:IN Index Cmax for CC[C@H](C)[C@H](NC(=O)[C@@H]1CCCN1)C(=O)N[C@H](C(=O)OC1=CCC2[C@H]3Cc4ccc(OC)c5c4[C@@]2(CCN3C)C1O5)[C@@H](C)CC (stereo partly shown)
0.97

Note, next up: COc1ccc2c3c1OC1C(OC(=O)[C@H](CC(C)C)NC(=O)[C@@H]4CCCN4C(=O)[C@@H]4CCCN4)=CCC4[C@@H](C2)N(C)CC[C@]314 (stereo partly shown)
2.25

Do the same for CC[C@H](C)[C@H](NC(=O)[C@H](CCC(=O)O)NC(=O)[C@@H](N)CCC(=O)O)C(=O)OC1=CCC2[C@H]3Cc4ccc(OC)c5c4[C@@]2(CCN3C)C1O5 (stereo partly shown) please
1.90

How about this compound: CC[C@H](C)[C@H](NC(=O)[C@H](CCCCN)NC(=O)[C@@H](N)CCCCN)C(=O)OC1=CCC2[C@H]3Cc4ccc(OC)c5c4[C@@]2(CCN3C)C1O5 (stereo partly shown)
0.81

---

Give IN Cmax % for every item shown.
- PROCEDURE_SUMMARY: Intranasal bioavailability of hydromorphone conjugates
- PROTOCOL_CONDITIONS: rats, corrected value calculated based on the control (HM)
Answer as a quantity: numeral, then unit.

Need IN Cmax % of CC(C)C[C@H](NC(=O)CNC(=O)CN)C(=O)OC1=CCC2[C@H]3Cc4ccc(O)c5c4[C@@]2(CCN3C)C1O5 (stereo partly drawn) , thanks.
85%

Same read-out for CC[C@H](C)[C@H](NC(=O)CNC(=O)CN)C(=O)OC1=CCC2[C@H]3Cc4ccc(O)c5c4[C@@]2(CCN3C)C1O5 (stereo partly drawn) ?
66%

And for CC(C)C[C@H](NC(=O)[C@@H]1CCCN1C(=O)[C@@H]1CCCN1)C(=O)OC1=CCC2[C@H]3Cc4ccc(O)c5c4[C@@]2(CCN3C)C1O5 (stereo partly drawn) ?
70%

---

- PROCEDURE_SUMMARY: Intranasal bioavailability of hydrocodone conjugates
- PROTOCOL_CONDITIONS: rats, relative to hydrocodone
Residues, ends and D or L forms follow the SMILES beside them. *: point of attachment. X1 = COc1ccc2c3c1OC1C(O*)=CCC4[C@@H](C2)N(C)CC[C@]314
Provide the recorded bioavailabiltty (% HC) IN Cmax for the entries that follow.
Entry rule: numbers only, all in % HC.

# bioavailabiltty (% HC) IN Cmax lookup, item COc1ccc2c3c1OC1C(OC(=O)[C@H](CC(C)C)NC(=O)[C@@H]4CCCN4C(=O)[C@@H]4CCCN4)=CCC4[C@@H](C2)N(C)CC[C@]314 (stereo partly shown)
48

Thanks! And COc1ccc2c3c1OC1C(OC(=O)[C@H](Cc4ccccc4)NC(=O)[C@@H]4CCCN4C(=O)[C@@H](N)CC(C)C)=CCC4[C@@H](C2)N(C)CC[C@]314 (stereo partly shown) ?
101

// repeat for CC[C@H](C)[C@H](NC(=O)CNC(=O)CNC(=O)[C@H](CCC(=O)O)NC(=O)[C@@H](N)CCC(=O)O)C(=O)OC1=CCC2[C@H]3Cc4ccc(OC)c5c4[C@@]2(CCN3C)C1O5 (stereo partly shown) [Glu2-Gly2-Ile-HC, Glu2-Gly2-Ile-Hydrocodone] (H-EEGGI-X1) and report
56

One more compound: COc1ccc2c3c1OC1C(OC(=O)[C@H](Cc4ccccc4)NC(=O)[C@H](Cc4ccccc4)NC(=O)[C@H](Cc4ccccc4)NC(=O)[C@H](CCC(=O)O)NC(=O)[C@@H](N)CCC(=O)O)=CCC4[C@@H](C2)N(C)CC[C@]314 (stereo partly shown) [Glu2-Phe3-HC, Glu2-Phe3-Hydrocodone] (H-EEFFF-X1)
47
